# Assayed System: Calmodulin-domain protein kinase 1 (Toxoplasma gondii, UniProt Q9BJF5)
# Experiment Notes: Inhibition of Toxoplasma gondii CDPK1
Assay Readout: IC50 (nM)
Provide the reading as a plain figure in nM.

Input: // map "NCCCC(=O)Nc1nc2ccc(C(=O)c3ccccc3)cc2[nH]1" to recorded IC50 (system: Calmodulin-domain protein kinase 1 (Toxoplasma gondii, UniProt Q9BJF5))
Output: 69

Input: // map "N[C@@H](Cc1c[nH]cn1)C(=O)Nc1nc2ccc(C(=O)c3ccccc3)cc2[nH]1" to recorded IC50 (system: Calmodulin-domain protein kinase 1 (Toxoplasma gondii, UniProt Q9BJF5))
Output: 140

Input: // map "O=C(CCC1CCNCC1)Nc1nc2ccc(C(=O)c3ccccc3)cc2[nH]1" to recorded IC50 (system: Calmodulin-domain protein kinase 1 (Toxoplasma gondii, UniProt Q9BJF5))
Output: 41

Input: // map "Nc1nc2ccc(C(=O)c3ccccc3)cc2n1CCc1ccc(F)cc1" to recorded IC50 (system: Calmodulin-domain protein kinase 1 (Toxoplasma gondii, UniProt Q9BJF5))
Output: 190

Input: // map "Nc1nc2ccc(C(=O)c3ccccc3)cc2n1C[C@@H]1CCCN1" to recorded IC50 (system: Calmodulin-domain protein kinase 1 (Toxoplasma gondii, UniProt Q9BJF5))
Output: 410

Input: // map "NCCC(=O)Nc1nc2ccc(C(=O)c3ccccc3)cc2n1CC1CCNCC1" to recorded IC50 (system: Calmodulin-domain protein kinase 1 (Toxoplasma gondii, UniProt Q9BJF5))
Output: 570

Input: // map "Nc1nc2ccc(C(=O)c3ccccc3)cc2n1CCC1CCNCC1" to recorded IC50 (system: Calmodulin-domain protein kinase 1 (Toxoplasma gondii, UniProt Q9BJF5))
Output: 20

Input: // map "Nc1nc2ccc(C(=O)c3ccccc3)cc2n1CC[C@@H]1CCCN1" to recorded IC50 (system: Calmodulin-domain protein kinase 1 (Toxoplasma gondii, UniProt Q9BJF5))
Output: 29

---

# Assayed System: Calmodulin-domain protein kinase 1 (Toxoplasma gondii, UniProt Q9BJF5)
# Sequence (Q9BJF5 whole entry): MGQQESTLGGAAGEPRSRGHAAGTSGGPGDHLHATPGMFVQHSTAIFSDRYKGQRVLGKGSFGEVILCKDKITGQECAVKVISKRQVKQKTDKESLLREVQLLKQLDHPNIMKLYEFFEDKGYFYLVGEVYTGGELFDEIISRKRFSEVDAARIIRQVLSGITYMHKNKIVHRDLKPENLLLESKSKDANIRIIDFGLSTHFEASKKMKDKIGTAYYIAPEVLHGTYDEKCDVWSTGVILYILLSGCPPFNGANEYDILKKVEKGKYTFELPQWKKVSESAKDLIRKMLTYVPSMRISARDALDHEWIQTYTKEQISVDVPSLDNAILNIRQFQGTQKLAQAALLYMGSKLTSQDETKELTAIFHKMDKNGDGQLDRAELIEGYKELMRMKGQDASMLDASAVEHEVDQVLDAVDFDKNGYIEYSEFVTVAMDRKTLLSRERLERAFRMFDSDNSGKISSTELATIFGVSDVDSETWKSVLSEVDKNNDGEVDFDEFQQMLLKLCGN
# Experiment Notes: Inhibition of Toxoplasma gondii CDPK1
pIC50: −log10 of the molar value.
Assay Readout: pIC50

The following molecules have reported results that may help.
>  <Molecule>
O=C(c1ccccc1)c1ccc2nc(NCCO)[nH]c2c1

>  <pIC50>
< 5.52

$$$$
>  <Molecule>
COC(=O)Nc1nc2ccc(C(O)c3ccccc3)cc2[nH]1 (stereo not drawn)

>  <pIC50>
< 5.52

$$$$

Now let's try a different one.
Input: // map O=C(c1ccccc1)c1ccc2nc(NCCC3CCCNC3)[nH]c2c1 (stereo not drawn) to recorded pIC50 (system: Calmodulin-domain protein kinase 1 (Toxoplasma gondii, UniProt Q9BJF5))
Output: < 5.52

# credit: ChEMBL document CHEMBL2057208
